subjectOfTest: recombinant human MGAT2 (Homo sapiens (Human), UniProt Q3SYC2)
Sequence (Q3SYC2 whole entry): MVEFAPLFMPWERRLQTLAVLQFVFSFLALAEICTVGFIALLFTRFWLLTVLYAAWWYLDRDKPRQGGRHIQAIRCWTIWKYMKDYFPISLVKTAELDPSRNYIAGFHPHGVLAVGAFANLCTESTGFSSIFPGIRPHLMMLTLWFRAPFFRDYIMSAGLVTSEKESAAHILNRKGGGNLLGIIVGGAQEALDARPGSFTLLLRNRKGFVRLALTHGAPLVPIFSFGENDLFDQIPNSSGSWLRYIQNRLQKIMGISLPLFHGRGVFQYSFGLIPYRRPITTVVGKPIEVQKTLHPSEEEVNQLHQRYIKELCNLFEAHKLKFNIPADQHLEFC
assayComment: Measurement of human MGAT2 inhibitory activity
Assay type: biochemical
conditionContext: read-out: IC50 (concentration exhibiting 50% enzyme inhibition), Table 52
Excerpt: A full-length human MGAT2 gene to which a Flag-tag had been added at the N-terminal was inserted into pFastBac (from Invitrogen). A recombinant baculovirus was produced in accordance with the protocol for a Bac-to-Bac baculovirus expression system (produced by Invitrogen), and Sf-9 cells were infected therewith. The cells were collected and sonicated, and then the membrane fraction was collected through centrifugation. […]
valueType: IC50 (nM)

A = CS(=O)(=O)CC(=O)Nc1c2c(nn1Cc1nc(C(F)(F)F)cs1)C[C@]1(CCc3cc(OCC(F)(F)F)ccc31)NC2=O
B = COc1ccccc1C(=O)Nc1c2c(nn1CCC1CC1)C[C@]1(CCc3cc(OCCCC(F)(F)F)ccc31)NC2=O
Req: In terms of reported IC50, does A or B have the smaller number? // output: label of the selected item
Resp: A
(A: 6.5 nM, B: 280 nM)

1 = O=C1N[C@@]2(CCc3cc(OCC(F)(F)F)cc(F)c32)Cc2nn(-c3ccccn3)c(-c3nnn[nH]3)c21
2 = O=C(Nc1c2c(nn1CCC1CC1)C[C@]1(CCc3cc(OCC(F)(F)F)ccc31)NC2=O)c1cccnc1
3 = Cc1cnoc1C(=O)Nc1c2c(nn1CCC1CC1)C[C@]1(CCc3cc(OCC(F)(F)F)ccc31)NC2=O
4 = O=C(NCc1c2c(nn1CCC1CC1)C[C@]1(CCc3cc(OCC(F)(F)F)ccc31)NC2=O)c1cocn1
5 = CS(=O)(=O)CC(=O)Nc1c2c(nn1CCC1CC1)C[C@]1(CCOc3cc(OCC(F)(F)F)ccc31)NC2=O
Req: Hi! Can you put these in order of IC50, lowest number first? Would you mind listing the labels in the order requested?
Resp: 5, 2, 3, 4, 1
(5: 1.9 nM, 2: 37.5 nM, 3: 90 nM, 4: 530 nM, 1: 760 nM)

----------
subjectOfTest: recombinant human MGAT2 (Homo sapiens (Human), UniProt Q3SYC2)
assayComment: Measurement of human MGAT2 inhibitory activity
Format: biochemical
conditionContext: read-out: IC50 (concentration exhibiting 50% enzyme inhibition), Table 52
valueType: IC50 (nM)

See these solved cases before continuing.
givenSmiles | IC50, nM
O=C1N[C@@]2(CCc3cc(OCC(F)(F)F)ccc32)Cc2nn(CCC3CC3)c(C(=O)NCC3(O)CCC3)c21 | 33
CS(=O)(=O)CC(=O)Nc1c2c(nn1-c1cccc3ccccc13)C[C@]1(CCc3cc(OCCCC(F)(F)F)ccc31)NC2=O | 930

I = Cn1nccc1C(=O)Nc1c2c(nn1CCC1CC1)C[C@]1(CCc3cc(OCC(F)(F)F)ccc31)NC2=O
II = CS(=O)(=O)CC(=O)Nc1c2c(nn1CCC1CC1)C[C@@]1(CCc3cc(N4CC(F)(F)C4)ccc31)NC2=O
III = CS(=O)(=O)CC(=O)Nc1c2c(nn1-c1ccc(C#N)cn1)C[C@@]1(CCc3cc(C4CC4)ccc31)NC2=O
IV = C=C(C)c1ccc(-n2nc3c(c2NC(=O)CS(C)(=O)=O)C(=O)N[C@@]2(CCc4cc(OCC(F)(F)F)ccc42)C3)nc1
V = N#CCNC(=O)c1c2c(nn1CCC1CC1)C[C@]1(CCc3cc(OCC(F)(F)F)ccc31)NC2=O
Req: Descending sort on IC50 required. Thanks in advance for listing the labels in the requested order.
Resp: V, I, IV, II, III
(V: 430 nM, I: 140 nM, IV: 11 nM, II: 5.2 nM, III: 3.6 nM)

A = COCC(=O)Nc1c2c(nn1CCC1CC1)C[C@]1(CCc3cc(OCCCC(F)(F)F)ccc31)NC2=O
B = O=C(Nc1c2c(nn1CCC1CC1)C[C@]1(CCc3cc(OCC(F)(F)F)ccc31)NC2=O)c1cncs1
C = O=C(NCc1c2c(nn1CCC1CC1)C[C@]1(CCc3cc(OCC(F)(F)F)ccc31)NC2=O)c1ccc(O)cc1
D = CC1(S(=O)(=O)NC(=O)c2c3c(nn2CCC2CC2)C[C@]2(CCc4cc(OCC(F)(F)F)ccc42)NC3=O)CC1
E = O=C1N[C@@]2(CCc3cc(OCC(F)(F)F)ccc32)Cc2nn(CCC3CC3)c(C(=O)NS(=O)(=O)C3CC3)c21
Req: Reorder the items by IC50, least to greatest. Could you list the labels in the order requested?
Resp: D, E, B, A, C
(D: 10 nM, E: 15 nM, B: 28 nM, A: 113 nM, C: 380 nM)

A = CC(=O)Nc1c2c(nn1CCC1CC1)C[C@]1(CCc3cc(OCCCC(F)(F)F)ccc31)NC2=O
B = O=C(Nc1c2c(nn1CCC1CC1)C[C@]1(CCc3cc(OCC(F)(F)F)ccc31)NC2=O)c1ccco1
C = CCOCCn1nc2c(c1NC(=O)CS(C)(=O)=O)C(=O)N[C@@]1(CCc3cc(OCC(F)(F)F)ccc31)C2
Req: Please rank these compounds by IC50 in descending order. // rank by listing labels in the order requested
Resp: A, C, B
(A: 330 nM, C: 150 nM, B: 35 nM)
